# System: Artemia salina
# assay: Toxicity against brine shrimp larvae assessed as mortality after 24 hrs by binocular microscopic analysis
# Assay type: organism-based
# experimental conditions: in vivo, 24 h
measured attribute: LC90 (µg/mL)
// return numeric value only (unit: µg/mL, not printed)

>>> value_reported("N#Cc1cnc2sc(S(N)(=O)=O)nn2c1=O")
777.87
>>> value_reported("NS(=O)(=O)C1=NN2C(=NC(=O)/C2=C\\c2ccc(Br)cc2)S1")
992.28

Asked: Hello, please tell me recorded LC90 for this one: COc1ccc(C2C(C#N)C(=O)N=C3SC(S(N)(=O)=O)=NN32)cc1OC (centres undefined)
Given back: 1076.55

Asked: Return LC90 (reported value) for this compound: N#Cc1cnc2sc(S(N)(=O)=O)nn2c1=N
Given back: 754.4

Asked: Return value of LC90 for input COc1ccc(/N=N/c2c(N)n3nc(S(N)(=O)=O)sc3nc2=O)cc1 , no commentary.
Given back: 726.97

Asked: Look up LC90 of NS(=O)(=O)C1=NN2C(=O)c3ccccc3NC(c3ccsc3)/N=C\2S1 (centres undefined) and report it.
Given back: 858.77

Asked: For the compound CCOC(=O)C1C(=O)N=C2SC(S(N)(=O)=O)=NN2C1c1ccc(N(C)C)cc1 (centres undefined) , give its measured LC90 value.
Given back: 728.74

Asked: Query LC90 for Nc1c(/N=N/c2ccccc2)c(=O)nc2sc(S(N)(=O)=O)nn12
Given back: 755.03

Asked: Retrieve LC90 measured for N#CC1C(=O)N=C2SC(S(N)(=O)=O)=NN2C1c1ccc(Cl)cc1 (centres undefined) and print it.
Given back: 1187.33

FYI, the data here is from ChEMBL document CHEMBL2375302.
